Cited source for all entries: patent US20180000085A1

system: Puccinia triticina; assay: Wheat brown rust (PUCCRT) disease control on wheat seedlings; assay type: in vivo; details: HV application, 100 ppm, 3 Day Curative, wheat brown rust
Readout: HV activity at 100 ppm PUCCRT 3DC (disease control rating)

> print(dat)
                                   compound   target.under.test  assay.result
1  Cc1ccc(O[C@H](CC(C)C)[C@H](C)OC(=O)[C@H](C)NC(=O)c2ncccc2O)c(Cl)c1 [Cmpd 1038]  Puccinia triticina      B (≤ 80)
2  COc1ccnc(C(=O)N[C@@H](C)C(=O)O[C@@H](C)[C@@H](CC(C)C)OCC2CC2)c1O [Cmpd 1045]  Puccinia triticina      A (> 80)
3  C=CC(OC(=O)C(C)NC(=O)c1nccc(OC)c1O)C(Oc1ccccc1)C(C)C (stereo not shown) [Cmpd 1033]  Puccinia triticina      A (> 80)
4  COc1ccnc(C(=O)N[C@@H](C)C(=O)O[C@@H](C)[C@@H](CC(C)C)Oc2ccc(C)cc2Cl)c1O [Cmpd 1051]  Puccinia triticina      B (≤ 80)
